target: BCL6 (Homo sapiens (Human)); test: Immunofluorescence high content imaging of BCL6 degradation in T47D cells; type: cell-based; settings: class symbols A-D, read-out: EC50 (nM)*
assay readout: DC50

Solved entries:
Reported DC50 for CNC(=O)COc1cc2cc(Nc3nc(N4CCC(OCCOCCOCCOCCOCCOc5ccc6c(c5)CN(C5CCC(=O)N(C)C5=O)C6=O)CC4)ncc3Cl)ccc2n(C)c1=O (stereo not shown) was 50 to 100 nM

Reported DC50 for CNC(=O)COc1cc2cc(Nc3nc(N4CCC(N(C)[C@H]5CC[C@H](CN6CCN(c7ccc8c(c7)CN(C7CCC(=O)NC7=O)C8=O)CC6)CC5)CC4)ncc3Cl)ccc2n(C)c1=O (stereo partly shown) was < 10 nM

Reported DC50 for CNC(=O)COc1cc2cc(Nc3nc(N4CCC(OCc5ccccc5OCCCCOCCOCCOc5ccc6c(c5)CN(C5CCC(=O)NC5=O)C6=O)CC4)ncc3Cl)ccc2n(C)c1=O (stereo not shown) was > 100 nM

Reported DC50 for CNC(=O)COc1cc2cc(Nc3nc(N4CCCC(COc5ccc(C6CCN(CCC(O)c7ccc8c(c7)CN(C7CCC(=O)NC7=O)C8=O)CC6)cc5)C4)ncc3Cl)ccc2n(C)c1=O (stereo not shown) was 10 to 50 nM

Would you be so kind as to report DC50 for each listed record?
1. CNC(=O)COc1cc2cc(Nc3nc(N4CCC(Cc5cn(CCOCCOc6ccc7c(c6)C(=O)N(C6CCC(=O)NC6=O)C7=O)nn5)CC4)ncc3Cl)ccc2n(C)c1=O (stereo not shown)
2. CNC(=O)COc1cc2cc(Nc3nc(N4CCC(OCCOCCOCCOCCOCCOCCNc5cccc6c5C(=O)N(C5CCC(=O)NC5=O)C6=O)CC4)ncc3Cl)ccc2n(C)c1=O (stereo not shown)
3. CC(=O)COc1cc2cc(Nc3nc(N4CCN(C5CCCN(c6ccc7c(c6)C(=O)N(C6CCC(=O)NC6=O)C7=O)C5)CC4)ncc3Cl)ccc2n(C)c1=O (stereo not shown)
4. CNC(=O)COc1cc2cc(Nc3nc(N4CCC(c5cn(CCOCC(=O)N[C@H](C(=O)N6C[C@H](O)C[C@H]6C(=O)N[C@@H](C)c6ccc(-c7scnc7C)cc6)C(C)(C)C)nn5)CC4)ncc3Cl)ccc2n(C)c1=O
5. CNC(=O)COc1cc2cc(Nc3nc(N4CCC(c5cn(CCOCCOCCOCC(=O)N[C@H](C(=O)N6C[C@H](O)C[C@H]6C(=O)N[C@@H](C)c6ccc(-c7scnc7C)cc6)C(C)(C)C)nn5)CC4)ncc3Cl)ccc2n(C)c1=O
6. CNC(=O)COc1cc2cc(Nc3nc(N4CCC(OCCOCCOCCOCCOCCOCCOCC(=O)N[C@H](C(=O)N5C[C@H](O)C[C@H]5C(=O)NCc5ccc(-c6scnc6C)cc5)C(C)(C)C)CC4)ncc3Cl)ccc2n(C)c1=O

1. 50 to 100 nM
2. > 100 nM
3. 10 to 50 nM
4. 50 to 100 nM
5. 10 to 50 nM
6. 50 to 100 nM
